Catalogue of compounds with associated IC50
test system: MCF-7 cells (with PI3Kα E545K mutation); experiment: In vitro inhibition of MCF-7 cell proliferation (CellTiter-Lumi); type: cell-based; details: Homo sapiens, MCF7, 144 h, class symbols, read-out: Inhibitory activity against MCF-7 cells (IC50), class symbols

>  <SMILES CODE>
CCOP(=O)(OCC)OCOC(C)(C)C=C(C#N)C(=O)Nc1ccc(N2CC(N3CCN(c4ccc5c(c4)-c4nc(N6C(=O)OC[C@H]6C(F)F)cn4CCO5)CC3)C2)cc1

>  <IC50>
< 50 nM

$$$$
>  <SMILES CODE>
C=CC(=O)N1CCc2cc(N3CCN(c4ccc5c(c4)-c4nc(N6C(=O)OC[C@H]6C(F)F)cn4CCO5)CC3)ccc2C1

>  <IC50>
< 50 nM

$$$$
>  <SMILES CODE>
CC(C)(N)C=C(C#N)C(=O)Nc1ccc(N2CC(N3CCN(c4ccc5c(c4)-c4nc(N6C(=O)OC[C@H]6C(F)F)cn4CCO5)CC3)C2)cc1Cl

>  <IC50>
< 50 nM

$$$$

====

test system: MCF-7 cells (with PI3Kα E545K mutation); assay: In vitro inhibition of MCF-7 cell proliferation (CellTiter-Lumi); type: cell-based; settings: Homo sapiens, MCF7, 144 h, class symbols, read-out: Inhibitory activity against MCF-7 cells (IC50), class symbols
pIC50: −log10 of the molar value.
Catalogue of compounds with associated pIC50

>  <SMILES CODE>
CC(C)(N)/C=C/C(=O)Nc1ccc(N2CC(N3CCN(c4ccc5c(c4)-c4nc(N6C(=O)OC[C@H]6C(F)F)cn4CCO5)CC3)C2)cc1

>  <pIC50>
> 7.30

$$$$
>  <SMILES CODE>
COCCNC(C)(C)C=C(C#N)C(=O)Nc1ncc(N2CC(N3CCN(c4ccc5c(c4)-c4nc(N6C(=O)OC[C@H]6C(F)F)cn4CCO5)CC3)C2)cn1

>  <pIC50>
> 7.30

$$$$
>  <SMILES CODE>
N#CC(=CC1(N)CC1)C(=O)Nc1ccc(N2CC(N3CCN(c4ccc5c(c4)-c4nc(N6C(=O)OC[C@H]6C(F)F)cn4CCO5)CC3)C2)nc1

>  <pIC50>
> 7.30

$$$$

====

molecular target: PI3Kα (Homo sapiens); assay: ADP-Glo kinase assay, in vitro inhibition of PI3Kα kinase activity; format: biochemical; settings: 25 μM ATP, PIP2 50 μg/mL, room temperature 1 h, read-out: Inhibitory activity against PI3K kinases, PI3Kα (IC50)
Sequence (P42336 whole entry): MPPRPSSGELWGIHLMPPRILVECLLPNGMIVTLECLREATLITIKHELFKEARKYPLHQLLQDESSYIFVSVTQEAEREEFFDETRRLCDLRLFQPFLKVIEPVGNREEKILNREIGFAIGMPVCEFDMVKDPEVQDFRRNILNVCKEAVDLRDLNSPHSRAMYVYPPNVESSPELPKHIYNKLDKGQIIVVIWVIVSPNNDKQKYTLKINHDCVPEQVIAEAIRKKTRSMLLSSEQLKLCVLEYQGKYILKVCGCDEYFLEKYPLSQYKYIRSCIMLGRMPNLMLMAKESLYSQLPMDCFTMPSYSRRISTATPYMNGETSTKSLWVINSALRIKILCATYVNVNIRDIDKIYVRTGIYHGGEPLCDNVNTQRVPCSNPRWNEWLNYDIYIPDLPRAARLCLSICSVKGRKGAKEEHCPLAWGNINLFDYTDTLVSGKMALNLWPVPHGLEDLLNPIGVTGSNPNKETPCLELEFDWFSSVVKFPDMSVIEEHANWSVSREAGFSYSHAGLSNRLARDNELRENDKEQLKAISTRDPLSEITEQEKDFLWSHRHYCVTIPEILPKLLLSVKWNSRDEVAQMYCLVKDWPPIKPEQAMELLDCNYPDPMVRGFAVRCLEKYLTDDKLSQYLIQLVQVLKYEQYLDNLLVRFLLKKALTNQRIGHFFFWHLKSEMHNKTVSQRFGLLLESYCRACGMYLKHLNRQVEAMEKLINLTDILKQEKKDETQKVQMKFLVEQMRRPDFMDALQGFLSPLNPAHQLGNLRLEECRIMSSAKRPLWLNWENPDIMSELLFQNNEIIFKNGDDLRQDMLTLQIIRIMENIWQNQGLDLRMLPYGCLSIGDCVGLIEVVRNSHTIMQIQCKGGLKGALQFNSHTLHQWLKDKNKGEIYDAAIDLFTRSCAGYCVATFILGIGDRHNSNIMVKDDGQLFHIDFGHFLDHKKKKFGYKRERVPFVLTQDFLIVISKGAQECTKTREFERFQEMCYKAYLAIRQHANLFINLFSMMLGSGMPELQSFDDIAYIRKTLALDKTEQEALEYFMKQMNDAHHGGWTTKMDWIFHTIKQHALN
Sequence (P27986 whole entry partner): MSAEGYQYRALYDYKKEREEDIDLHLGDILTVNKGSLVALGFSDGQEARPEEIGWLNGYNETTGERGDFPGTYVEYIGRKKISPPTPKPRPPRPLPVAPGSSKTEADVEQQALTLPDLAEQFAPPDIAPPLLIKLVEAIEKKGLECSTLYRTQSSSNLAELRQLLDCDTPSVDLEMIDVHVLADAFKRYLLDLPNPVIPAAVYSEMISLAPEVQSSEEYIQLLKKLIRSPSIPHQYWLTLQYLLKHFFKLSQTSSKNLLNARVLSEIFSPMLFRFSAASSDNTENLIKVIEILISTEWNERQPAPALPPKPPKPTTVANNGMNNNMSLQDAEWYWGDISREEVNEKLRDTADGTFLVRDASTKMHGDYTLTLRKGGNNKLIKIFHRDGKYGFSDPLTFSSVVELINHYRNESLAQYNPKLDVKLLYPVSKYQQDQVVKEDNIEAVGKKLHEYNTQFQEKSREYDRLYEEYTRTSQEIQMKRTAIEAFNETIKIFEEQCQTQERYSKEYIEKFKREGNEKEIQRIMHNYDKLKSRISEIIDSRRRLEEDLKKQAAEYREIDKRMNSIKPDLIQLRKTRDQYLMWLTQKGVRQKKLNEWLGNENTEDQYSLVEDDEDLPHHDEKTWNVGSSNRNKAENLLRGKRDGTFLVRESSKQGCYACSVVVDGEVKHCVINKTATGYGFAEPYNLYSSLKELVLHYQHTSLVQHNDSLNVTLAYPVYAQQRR
pIC50: −log10 of the molar value.

>  <COMPOUND>
CN(C1COC1)C(C)(C)/C=C(\C#N)C(=O)Nc1ccc(N2CC(N3CCN(c4ccc5c(c4)-c4nc(N6C(=O)OC[C@H]6C(F)F)cn4CCO5)CC3)C2)cc1 [Compound 95]

>  <pIC50>
9.80

$$$$
>  <COMPOUND>
C=CC(=O)Nc1ccc(N2CC[C@H](N3CCN(c4ccc5c(c4)-c4nc(N6C(=O)OC[C@H]6C(F)F)cn4CCO5)CC3)C2)cc1 (single isomer, unassigned) [Compound 29]

>  <pIC50>
8.93

$$$$

====

system: HCC1954 cells (with PI3Kα H1047R mutation); assay: In vitro inhibition of HCC1954 cell proliferation (CellTiter-Lumi); assay type: cell-based; conditions: Homo sapiens, HCC1954, 144 h, HCC1954 cells, 144 h, CellTiter-Lumi; numeric values; read-out: Inhibitory activity against HCC1954 cells (IC50)

>  <SMILES CODE>
C=CC(=O)Nc1ccc(N2CC(N3CCN(c4ccc5c(c4)-c4nc(N6C(=O)SC[C@H]6C(F)F)cn4CCO5)CC3)C2)cc1

>  <TESTED ON>
HCC1954 cells (with PI3Kα H1047R mutation)

>  <RELATION QUALIFIER>
=

>  <IC50, nM>
6

$$$$
>  <SMILES CODE>
C=CC(=O)Nc1ncc(N2CC(N3CCN(c4ccc5c(c4)-c4nc(N6C(=O)OC[C@H]6C(F)F)cn4CCO5)CC3)C2)cc1C

>  <TESTED ON>
HCC1954 cells (with PI3Kα H1047R mutation)

>  <RELATION QUALIFIER>
=

>  <IC50, nM>
6.6

$$$$
>  <SMILES CODE>
C=CC(=O)Nc1ccc(N2CC(N3CCN(c4ccc5c(c4)-c4nc(N6C(=O)OC[C@H]6C(F)F)cn4CCO5)CC3)C2)nn1

>  <TESTED ON>
HCC1954 cells (with PI3Kα H1047R mutation)

>  <RELATION QUALIFIER>
=

>  <IC50, nM>
2.9

$$$$
>  <SMILES CODE>
CC(C)(C=C(C#N)C(=O)Nc1ccc(N2CC(N3CCN(c4ccc5c(c4)-c4nc(N6C(=O)OC[C@H]6C(F)F)cn4CCO5)CC3)C2)cc1)N1CCC1

>  <TESTED ON>
HCC1954 cells (with PI3Kα H1047R mutation)

>  <RELATION QUALIFIER>
=

>  <IC50, nM>
14

$$$$
>  <SMILES CODE>
C=CC(=O)Nc1ccc(N2CC(N3CCN(c4ccc5c(c4)-c4nc(N6C(=O)OC[C@H]6C(F)F)cn4CCO5)CC3)C2)nc1

>  <TESTED ON>
HCC1954 cells (with PI3Kα H1047R mutation)

>  <RELATION QUALIFIER>
=

>  <IC50, nM>
7

$$$$
>  <SMILES CODE>
C=CC(=O)Nc1ccc(CCC(=O)N2CCN(c3ccc4c(c3)-c3nc(N5C(=O)OC[C@H]5C(F)F)cn3CCO4)CC2)cc1

>  <TESTED ON>
HCC1954 cells (with PI3Kα H1047R mutation)

>  <RELATION QUALIFIER>
=

>  <IC50, nM>
298

$$$$
>  <SMILES CODE>
CC(C)=CC(=O)CCCCC(=O)N1CCN(c2ccc3c(c2)-c2nc(N4C(=O)OC[C@H]4C(F)F)cn2CCO3)CC1

>  <TESTED ON>
HCC1954 cells (with PI3Kα H1047R mutation)

>  <RELATION QUALIFIER>
=

>  <IC50, nM>
249

$$$$
>  <SMILES CODE>
C=CC(=O)N1CCCc2cc(N3CC(N4CCN(c5ccc6c(c5)-c5nc(N7C(=O)OC[C@H]7C(F)F)cn5CCO6)CC4)C3)ccc21

>  <TESTED ON>
HCC1954 cells (with PI3Kα H1047R mutation)

>  <RELATION QUALIFIER>
=

>  <IC50, nM>
28

$$$$
>  <SMILES CODE>
C=CC(=O)Nc1ccc(N2CC(N3CC=C(c4ccc5c(c4)-c4nc(N6C(=O)OC[C@H]6C(F)F)cn4CCO5)CC3)C2)cc1

>  <TESTED ON>
HCC1954 cells (with PI3Kα H1047R mutation)

>  <RELATION QUALIFIER>
=

>  <IC50, nM>
23

$$$$
>  <SMILES CODE>
CC(C)(C)C=C(C#N)C(=O)Nc1ccc(N2CC(N3CCN(c4ccc5c(c4)-c4nc(N6C(=O)OC[C@H]6C(F)F)cn4CCO5)CC3)C2)cc1

>  <TESTED ON>
HCC1954 cells (with PI3Kα H1047R mutation)

>  <RELATION QUALIFIER>
=

>  <IC50, nM>
71

$$$$
>  <SMILES CODE>
CNC(C)(C)C=C(C#N)C(=O)Nc1ccc(N2CC(N3CCN(c4ccc5c(c4)-c4nc(N6C(=O)OC[C@H]6C(F)F)cn4CCO5)CC3)C2)cc1

>  <TESTED ON>
HCC1954 cells (with PI3Kα H1047R mutation)

>  <RELATION QUALIFIER>
=

>  <IC50, nM>
0.6

$$$$
>  <SMILES CODE>
C=CC(=O)N1CC[C@H](CN2CC3(CCN(c4ccc5c(c4)-c4nc(N6C(=O)OC[C@H]6C(F)F)cn4CCO5)CC3)C2)C1

>  <TESTED ON>
HCC1954 cells (with PI3Kα H1047R mutation)

>  <RELATION QUALIFIER>
>

>  <IC50, nM>
1000

$$$$

====

system: HCC1954 cells (with PI3Kα H1047R mutation); experiment: In vitro inhibition of HCC1954 cell proliferation (CellTiter-Lumi); type: cell-based; details: Homo sapiens, HCC1954, 144 h, HCC1954 cells, 144 h, CellTiter-Lumi; numeric values; read-out: Inhibitory activity against HCC1954 cells (IC50)
Note to self: IC50 under 60 nM means YES, ties and anything higher get NO.

>  <SMILES CODE>
C=CC(=O)N1CC[C@@H](CN2CC(CN3CCN(c4ccc5c(c4)-c4nc(N6C(=O)OC[C@H]6C(F)F)cn4CCO5)CC3)C2)C1

>  <ASSIGNED CATEGORY>
NO

$$$$
>  <SMILES CODE>
C=CC(=O)N1CCC(CN2CC3(CCN(c4ccc5c(c4)-c4nc(N6C(=O)OC[C@H]6C(F)F)cn4CCO5)CC3)C2)CC1

>  <ASSIGNED CATEGORY>
NO

$$$$
>  <SMILES CODE>
C=CC(=O)Nc1ccc(N2CC(N3CCN(c4ccc5c(c4)-c4nc(N6C(=O)OC[C@H]6C(F)F)cn4CCO5)CC3)C2)cc1F

>  <ASSIGNED CATEGORY>
YES

$$$$
>  <SMILES CODE>
C/C=C/C(=O)Nc1ccc(N2CC(N3CCN(c4ccc5c(c4)-c4nc(N6C(=O)OC[C@H]6C(F)F)cn4CCO5)CC3)C2)cc1

>  <ASSIGNED CATEGORY>
NO

$$$$
>  <SMILES CODE>
C=C(C)C(=O)Nc1ccc(N2CC(N3CCN(c4ccc5c(c4)-c4nc(N6C(=O)OC[C@H]6C(F)F)cn4CCO5)CC3)C2)cc1

>  <ASSIGNED CATEGORY>
NO

$$$$
